# Tgt: T1, NHERF1 PDZ1 domain (human, UniProt O14745 1-139)
# T1 sequence (looked up): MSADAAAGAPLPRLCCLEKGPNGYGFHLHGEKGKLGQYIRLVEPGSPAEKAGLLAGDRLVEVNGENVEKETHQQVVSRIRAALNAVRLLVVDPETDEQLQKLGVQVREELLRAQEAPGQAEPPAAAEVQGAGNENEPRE
# Assay Info: fluorescence polarisation
Property Name: Ki (nM)

Binder | Measurement
CDTRL [C-CFTR4] | 949
